- test_protocol: chemical genetic growth profiling, strain panel (AID 1159580);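 further: tested at 20 µM; growth read once vehicle control cultures reached saturation at 30 °C; 1 = growth at the plate median or of vehicle wells; lower values mean less growth of the strain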
- condition: S. cerevisiae deletion strains, growth OD, locus YNL322C, strain KRE1
Among all 5,500 compounds or so, about 2,000 (36%) were called active. Not shown: some 18% with an inconclusive outcome. No stated cut-off is given here; in the data, active means normalized growth mostly below about 0.91 (no sharp cut-off); inconclusive means no clear call, values can overlap the other calls; inactive means mostly above about 0.92. The list shows a part of the results.
Labels: active, inactive

compound: CCN(CC)C(=O)N[C@@H]1C=C2c3cccc4[nH]cc(c34)C[C@H]2N(C)C1
category_label: inactive

compound: COc1cc(/C=C2/N=C(c3ccccc3I)OC2=O)cc(OC)c1OC
category_label: inactive

compound: O=C(COC(=O)c1ccccc1C(=O)c1ccccc1)c1ccccc1
category_label: inactive

compound: CC(=O)Oc1cccc(C(=O)O)c1OC(C)=O
category_label: inactive

compound: COc1cc(NS(=O)(=O)c2ccc(N)cc2)ncn1
category_label: inactive

compound: COc1cccc(NC(N)=S)c1
category_label: inactive

compound: CC[C@@H](CO)NC(=O)[C@@H]1C=C2c3cccc4[nH]cc(c34)C[C@H]2N(C)C1
category_label: inactive

compound: COc1cccc(Nc2nc3ccccc3s2)c1
category_label: active

compound: CC1=CC2C(C(C)C)CCC(C)(O)C2CC1 (stereo unspecified)
category_label: inactive

compound: OC(c1cc(C(F)(F)F)nc2c(C(F)(F)F)cccc12)C1CCCCN1 (stereo unspecified)
category_label: inactive

compound: OC(CSc1ccccc1)CN1CCN(c2ccc(C(F)(F)F)cn2)CC1 (stereo unspecified)
category_label: inactive

compound: NCC1OC(OC2C(CO)OC(OC3C(O)C(N)CC(N)C3OC3OC(CO)C(O)CC3N)C2O)C(N)C(O)C1OC1OC(CO)C(O)C(O)C1O (stereo unspecified)
category_label: inactive

compound: CO[C@H]1C[C@H](O[C@H]2[C@H](C)[C@@H](OC3O[C@H](C)C[C@H](N(C)C)[C@H]3OC(C)=O)[C@@H](C)C[C@]3(CO3)C(=O)[C@H](C)[C@@H](OC(C)=O)[C@@H](C)[C@@H](C)OC(=O)[C@@H]2C)O[C@@H](C)[C@@H]1OC(C)=O (stereo partly specified)
category_label: inactive

compound: NC(=S)c1ccc(Oc2ccc(Cl)cc2)nc1
category_label: active

compound: O=C(Nc1cccnc1)c1cccc(Cl)c1Cl
category_label: inactive

compound: CCOC([O-])=Nc1c[n+](N2CCOCC2)no1
category_label: inactive

compound: CN(C(=O)Nc1ccccc1)n1cnc2ccccc2c1=O
category_label: inactive

compound: COc1cc2c(cc1OC)[C@@]13CCN4CC5=CCOC6CC(=O)N2C1[C@H]6[C@H]5C[C@H]43 (stereo partly specified)
category_label: inactive

compound: Cn1cc(C(F)(F)F)nc1-c1ccc(OCC(O)CNCCOc2ccc(O)c(C(N)=O)c2)cc1 (stereo unspecified)
category_label: inactive

compound: O=C(CCc1ccc(O)cc1)c1c(O)cc(O)cc1O[C@@H]1O[C@H](CO)[C@@H](O)[C@H](O)[C@H]1O
category_label: inactive

compound: NC1CC1c1ccccc1 (stereo unspecified)
category_label: inactive

----------
- test_protocol: chemical genetic growth profiling, strain panel (AID 1159580);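 further: tested at 20 µM; growth read once vehicle control cultures reached saturation at 30 °C; 1 = growth at the plate median or of vehicle wells; lower values mean less growth of the strain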
- condition: S. cerevisiae deletion strains, growth OD, locus YCL061C, strain MRC1, hits give low values
Hit rate of the full screen: of about 5,500 compounds, about 2,000 (36%) were called active. Roughly 18% stayed inconclusive and do not appear here. This is one part of the list. Where a SMILES comes first, the peptide text is derived from it. Side-chain parts run from the residue outwards. [ ]: non-standard residue; d: D form. The star is where a group is joined. X1 = CCC(C)C(N)C1=NC(C(=O)*)CS1; Orn = NCCC[CH](N)C(=O)O
parameter_measured: normalized growth

compound: COc1cc(NS(=O)(=O)c2ccc(N)cc2)ncn1
test_result: 0.979
--
compound: COc1cc2c(cc1OC)[C@@H]1C(=O)c3ccc4c(c3O[C@@H]1CO2)CC(C(C)C)O4 (stereo partly drawn)
test_result: 0.96
--
compound: CCOC([O-])=Nc1c[n+](N2CCOCC2)no1
test_result: 0.998
--
compound: CC(=O)[O][Hg][c]1ccccc1
test_result: 0.066
--
compound: CC1(C)S[C@@H]2[C@H](NC(=O)Cc3ccccc3)C(=O)N2[C@H]1C(=O)O
test_result: 1.02
--
compound: Cc1onc(-c2ccccc2)c1C(=O)NC1C(=O)N2[C@@H]1SC(C)(C)[C@@H]2C(=O)O (stereo partly drawn)
test_result: 1.02
--
compound: COc1cc(/C=C2/N=C(c3ccccc3I)OC2=O)cc(OC)c1OC
test_result: 1.01
--
compound: c1cc(C2CCCCC2)ccc1C1CCCCC1
test_result: 0.965
--
compound: CNC(Cc1c[nH]c2ccccc12)C(=O)O (stereo not drawn)
test_result: 0.983
--
compound: C=C(C)[C@H]1Cc2c(ccc3c2O[C@@H]2COc4cc(OC)c(OC)cc4[C@@H]2C3=O)O1
test_result: 1
--
compound: COc1cc2cc3c4cc(OC)c(OC)cc4cc[n+]3c(C)c2cc1OC
test_result: 1.01
--
compound: CCC(C)C(N)C1=NC(C(=O)NC(CC(C)C)C(=O)NC(CCC(=O)O)C(=O)NC(C(=O)NCCCCC2NC(=O)C(CC(N)=O)NC(=O)C(CC(=O)O)NC(=O)C(Cc3cnc[nH]3)NC(=O)C(Cc3ccccc3)NC(=O)C(C(C)CC)NC(=O)C(CCCN)NC2=O)C(C)CC)CS1 (stereo not drawn) (cyclo(DNK([Ile-Glu-Leu-X1])[Orn]IFH); configuration not given here)
test_result: 0.993
--
compound: O=C1C=C(Cl)CC(c2ccc(C(F)(F)F)cc2)C1 (stereo not drawn)
test_result: 1.01
--
compound: OCc1c[nH]c2ccccc12
test_result: 1.01
--
compound: CC(C)(C)c1cc(-c2cc(C(F)(F)F)[nH]n2)c2c(c1)C(C)(C)CC2
test_result: 0.995
--
compound: O=C(NC1CCCCC1)NC1CCCCC1
test_result: 0.983
--
compound: CO[C@H]1C[C@H](O[C@H]2[C@H](C)[C@@H](OC3O[C@H](C)C[C@H](N(C)C)[C@H]3OC(C)=O)[C@@H](C)C[C@]3(CO3)C(=O)[C@H](C)[C@@H](OC(C)=O)[C@@H](C)[C@@H](C)OC(=O)[C@@H]2C)O[C@@H](C)[C@@H]1OC(C)=O (stereo partly drawn)
test_result: 0.992
--
compound: CN1CCN(CCCN2c3ccccc3Sc3ccc(C(F)(F)F)cc32)CC1
test_result: 0.0741

----------
- test_protocol: chemical genetic growth profiling, strain panel (AID 1159580);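 further: tested at 20 µM; growth read once vehicle control cultures reached saturation at 30 °C; 1 = growth at the plate median or of vehicle wells; lower values mean less growth of the strain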
- condition: S. cerevisiae deletion strains, growth OD, locus YAL021C, strain ccr4
The whole screen tested about 5,500 compounds, of which about 2,000 (36%) were called active. Inconclusive results (about 18%) are left out. No stated cut-off is given here; in the data, active means normalized growth mostly below about 0.91 (no sharp cut-off); inconclusive means no clear call, values can overlap the other calls; inactive means mostly above about 0.92. The list shows a part of the results. Where a SMILES comes first, the peptide text is derived from it. Bridges are numbered along the chain shown (N, C = ends). Side-chain parts run from the residue outwards. [ ]: non-standard residue; d: D form. The star is where a group is joined. Octanoyl(6-Me) = CCC(C)CCCCC(=O)*; X1 = CCC(C)C(N)C1=NC(C(=O)*)CS1; Orn = NCCC[CH](N)C(=O)O; Dab = NCC[CH](N)C(=O)O
Labels: TRUE = active, FALSE = inactive

compound: CC(NCCC(c1ccccc1)c1ccccc1)c1ccccc1 (stereo unspecified)
category_label: TRUE

compound: COc1c2ccoc2cc2oc(C)cc(=O)c12
category_label: FALSE

compound: C1CCC(C(CC2CCCCN2)C2CCCCC2)CC1 (stereo unspecified)
category_label: TRUE

compound: CCC(C)CCCCC(=O)NC(CCN)C(=O)NC(C(=O)NC(CCN)C(=O)NC1CCNC(=O)C(C(C)O)NC(=O)C(CCN)NC(=O)C(CCN)NC(=O)C(CC(C)C)NC(=O)C(Cc2ccccc2)NC(=O)C(CCN)NC1=O)C(C)O (stereo unspecified) ({Octanoyl(6-Me)}-[Dab]T[Dab][Dab][Dab]FL[Dab][Dab]T; lactam 4-C; configuration not given here)
category_label: FALSE

compound: CN(C)CCc1c[nH]c2ccc(CS(=O)(=O)N3CCCC3)cc12
category_label: FALSE

compound: OCc1c[nH]c2ccccc12
category_label: FALSE

compound: c1ccc2c(Cc3c[nH]c4ccccc34)c[nH]c2c1
category_label: TRUE

compound: Cc1onc(-c2ccccc2)c1C(=O)NC1C(=O)N2[C@@H]1SC(C)(C)[C@@H]2C(=O)O (stereo partly specified)
category_label: FALSE

compound: CC1(C)S[C@@H]2[C@H](NC(=O)Cc3ccccc3)C(=O)N2[C@H]1C(=O)O
category_label: FALSE

compound: O=C(NC1CCCCC1)NC1CCCCC1
category_label: FALSE

compound: COC(=O)[C@]1(C)CC[C@]2(C)CC[C@]3(C)C4=CC=C5C(=CC(=O)C(O)=C5C)[C@]4(C)CC[C@@]3(C)[C@@H]2C1
category_label: TRUE

compound: CC1=CC2C(C(C)C)CCC(C)(O)C2CC1 (stereo unspecified)
category_label: FALSE

compound: CNS(=O)(=O)Cc1ccc2[nH]cc(CCN(C)C)c2c1
category_label: FALSE

compound: CCC(C)C(N)C1=NC(C(=O)NC(CC(C)C)C(=O)NC(CCC(=O)O)C(=O)NC(C(=O)NCCCCC2NC(=O)C(CC(N)=O)NC(=O)C(CC(=O)O)NC(=O)C(Cc3cnc[nH]3)NC(=O)C(Cc3ccccc3)NC(=O)C(C(C)CC)NC(=O)C(CCCN)NC2=O)C(C)CC)CS1 (stereo not drawn) (cyclo(DNK([Ile-Glu-Leu-X1])[Orn]IFH); configuration not given here)
category_label: FALSE

compound: Cc1cc(C(C)(C)C)c(O)c(C)c1CC1=NCCN1
category_label: FALSE

compound: COc1cccc(OC)c1C(=O)N[C@@H]1C(=O)N2[C@@H]1SC(C)(C)[C@@H]2C(=O)O
category_label: FALSE

compound: Cc1onc(-c2c(Cl)cccc2Cl)c1C(=O)N[C@@H]1C(=O)N2[C@@H]1SC(C)(C)[C@@H]2C(=O)O
category_label: FALSE

compound: CC[C@@H](CO)NC(=O)[C@@H]1C=C2c3cccc4[nH]cc(c34)C[C@H]2N(C)C1
category_label: FALSE

compound: COc1cc(O)cc(OC)c1OC
category_label: FALSE

compound: CC(=O)CC1CCCCN1 (stereo unspecified)
category_label: FALSE

compound: CC(=O)NO
category_label: FALSE

compound: CC1(C)S[C@@H]2[C@H](NC(=O)[C@H](C(=O)O)c3cccs3)C(=O)N2[C@H]1C(=O)O
category_label: FALSE

compound: c1ccc([C@H]2CN3CCSC3=N2)cc1
category_label: FALSE

compound: CCC1C(=O)OCC1Cc1cncn1C (stereo unspecified)
category_label: FALSE

compound: COC1(C)CCC2OC2(C)CCC2C1CC2(C)C (stereo unspecified)
category_label: FALSE

compound: CCCCc1nc(Cl)c(CO)n1Cc1ccc(-c2ccccc2-c2nn[nH]n2)cc1
category_label: FALSE

compound: CC(C)CC1NC(=O)C(CCCN)NC(=O)C(C(C)C)NC(=O)C2CCCN2C(=O)C(Cc2ccccc2)NC(=O)C(CC(C)C)NC(=O)C(CCCN)NC(=O)C(C(C)C)NC(=O)C2CCCN2C(=O)C(Cc2ccccc2)NC1=O (stereo unspecified) (cyclo(FPV[Orn]LFPV[Orn]L); configuration not given here)
category_label: FALSE

compound: CC(=O)Oc1cc2c(c(C)c1OC(C)=O)CC1OC13C2(C)CCC1(C)C2CC(C)(C(=O)O)CCC2(C)CCC13C (stereo unspecified)
category_label: FALSE

compound: CNC(Cc1c[nH]c2ccccc12)C(=O)O (stereo unspecified)
category_label: FALSE

compound: CC(=O)N[C@@H](Cc1c[nH]c2ccccc12)C(=O)O
category_label: FALSE

compound: CC1=C(O)C(=O)C=C2C1=CC=C1[C@@]2(C)CC[C@@]2(C)[C@@H]3C[C@](C)(C(=O)O)CC[C@]3(C)CC[C@]12C
category_label: TRUE
